System: Enterococcus faecium
assayDetails: Antibacterial activity against glycopeptide-resistant Enterococcus faecium Efm-HS-0649 vanA after 24 hrs by broth microdilution method
Type: functional
cond: Efm-HS-0649, 24 h
I'd appreciate it if you could supply MIC values for the items below.
Output should be the measured figure followed by the unit it is expressed in.

# example entries with known answers
[[record]]
molecule = "CN[C@H](CC(C)C)C(=O)N[C@H]1C(=O)N[C@@H](CC(N)=O)C(=O)N[C@H]2C(=O)N[C@H]3C(=O)N[C@H](C(=O)N[C@H](C(=O)O)c4cc(O)c(CN[C@H]5C(O)O[C@H](CO)[C@H](O)[C@@H]5O)c(O)c4-c4cc3ccc4O)[C@H](O)c3ccc(c(Cl)c3)Oc3cc2cc(c3O[C@@H]2O[C@H](CO)[C@@H](O)[C@H](O)[C@H]2O[C@H]2C[C@](C)(NCc3ccc(-c4ccc(C(F)(F)F)cc4)cc3)[C@H](O)[C@H](C)O2)Oc2ccc(cc2Cl)[C@H]1O (some centres undefined)"
parameter = "MIC"
valuereported = "1 mg/L"

[[record]]
molecule = "CN[C@H](CC(C)C)C(=O)N[C@H]1C(=O)N[C@@H](CC(N)=O)C(=O)N[C@H]2C(=O)N[C@H]3C(=O)N[C@H](C(=O)N[C@H](C(=O)O)c4cc(O)c(CNCCCNC(=O)[C@H](O)[C@@H](O)[C@H](O)[C@H](O)CO)c(O)c4-c4cc3ccc4O)[C@H](O)c3ccc(c(Cl)c3)Oc3cc2cc(c3O[C@@H]2O[C@H](CO)[C@@H](O)[C@H](O)[C@H]2O[C@H]2C[C@](C)(NCc3ccc(-c4ccc(C(F)(F)F)cc4)cc3)[C@H](O)[C@H](C)O2)Oc2ccc(cc2Cl)[C@H]1O"
parameter = "MIC"
valuereported = "2 mg/L"

[[record]]
molecule = "CN[C@H](CC(C)C)C(=O)N[C@H]1C(=O)N[C@@H](CC(N)=O)C(=O)N[C@H]2C(=O)N[C@H]3C(=O)N[C@H](C(=O)N[C@H](C(=O)NCCCN(C)C)c4cc(O)c(CNCCCNC(=O)[C@H](O)[C@@H](O)[C@H](O)[C@H](O)CO)c(O)c4-c4cc3ccc4O)[C@H](O)c3ccc(c(Cl)c3)Oc3cc2cc(c3O[C@@H]2O[C@H](CO)[C@@H](O)[C@H](O)[C@H]2O[C@H]2C[C@](C)(NCc3ccc(-c4ccc(Cl)cc4)cc3)[C@H](O)[C@H](C)O2)Oc2ccc(cc2Cl)[C@H]1O"
parameter = "MIC"
valuereported = "1 mg/L"


Exercise: Please report the recorded MIC for CCCCCCCCCCNCCN[C@@]1(C)C[C@H](O[C@H]2[C@H](Oc3c4cc5cc3Oc3ccc(cc3Cl)[C@@H](O)[C@@H](NC(=O)[C@@H](CC(C)C)NC)C(=O)N[C@@H](CC(N)=O)C(=O)N[C@H]5C(=O)N[C@H]3C(=O)N[C@H](C(=O)N[C@H](C(=O)O)c5cc(O)c(CN[C@@H]6C(O)O[C@H](CO)[C@@H](O)[C@@H]6O)c(O)c5-c5cc3ccc5O)[C@H](O)c3ccc(c(Cl)c3)O4)O[C@H](CO)[C@@H](O)[C@@H]2O)O[C@@H](C)[C@H]1O (some centres undefined) .
Solution: 64 mg/L

// provenance: ChEMBL document CHEMBL4052823
